Test system: SEM cells
Test: cell viability relative to DMSO control; higher = less cytotoxic
Conditions: RPMI 5 mM glucose + 10% FBS; 48 h; 0.0632 µM
property-measured: cell viability (%)
Numbers only, in %.

In the examples that follow, each entry is paired with its recorded cell viability.
[[record]]
compound = "CCOP(=O)(OCC)C(C)NC(=O)N(CCCl)N=O (centres undefined)"
property_measured = "cell viability"
measured = 101

[[record]]
compound = "CC1(C)O[C@H]2CC(=O)OC[C@]23[C@H]2CC[C@@]4(C)[C@H](c5ccoc5)OC(=O)[C@H]5O[C@]54[C@]2(C)C(=O)C[C@@H]13"
property_measured = "cell viability"
measured = 99.2


Record cell viability for all entries; do not skip any.
1. N#Cc1c(C2CCNCC2)cc(-c2c(O)cccc2OCC2CC2)nc1N
2. CN(C)[C@H]\1[C@@H]2[C@@H](O)[C@@H]\3C(=C)C4=C(C(=CC=C4)O)C(=O)C3=C(\O)[C@@]2(O)C(=O)\C(=C1O)C(N)=O
3. CCOC(=O)c1ncn2c1CN(C)C(=O)c1cc(F)ccc1-2
4. CN(C)C(=O)COC(=O)Cc1ccc(OC(=O)c2ccc(NC(=N)N)cc2)cc1

// result
121
112
105
130

State the recorded cell viability for every item in the following list.
1. NC/1=N/C(=O)N(/C=C1)[C@H]2CC[C@@H](CO)O2
2. CN[C@@H](C)C(=O)N[C@H]1CCCC[C@H]2CC[C@@H](C(=O)N[C@@H](c3ccccc3)c3cn(CCCCc4ccc(CCCCn5cc([C@@H](NC(=O)[C@@H]6CC[C@@H]7CCCC[C@H](NC(=O)[C@H](C)NC)C(=O)N76)c6ccccc6)nn5)cc4)nn3)N2C1=O
3. Cc1cnc(Nc2ccc(OCCN3CCCC3)cc2)nc1Nc1cccc([S+](=O)([O-])NC(C)(C)C)c1

// result
1. 88.3
2. 83.4
3. 104

====

For each entry below, report its cell viability value.
Test system: SEM cells
Assay: cell viability relative to DMSO control; higher = less cytotoxic
Conditions: HPLM + 10% dialyzed FBS; 48 h; 0.000781 µM
Give bare numbers, in %.

Some compounds with known cell viability results, for comparison:
[[record]]
smiles_structure = "CCCn1c(=O)c2[nH]c(C34CC5CC3C[C@@H](C5)C4)nc2n(CCC)c1=O"
target_entity = "SEM cells"
property_measured = "cell viability"
measured = 102

[[record]]
smiles_structure = "COC1=C(OC)C(=O)C(C/C=C(\\C)CC/C=C(\\C)CC/C=C(\\C)CC/C=C(\\C)CC/C=C(\\C)CC/C=C(\\C)CC/C=C(\\C)CC/C=C(\\C)CC/C=C(\\C)CCC=C(C)C)=C(C)C1=O"
target_entity = "SEM cells"
property_measured = "cell viability"
measured = 104

[[record]]
smiles_structure = "CC1(C)OC/2=C(\\[C@H](NCC3=CC=CC=C3)[C@@H]1O)C(=O)C4=CC=CC=C4C2=O"
target_entity = "SEM cells"
property_measured = "cell viability"
measured = 103

[[record]]
smiles_structure = "Cc1cc(SCc2sc(-c3ccc(C(F)(F)F)c(F)c3)nc2C)ccc1OCC(=O)O"
target_entity = "SEM cells"
property_measured = "cell viability"
measured = 104


Look up cell viability for the entries below, preserving their order.
1. CCOC(=O)c1ccc(C#Cc2ccc3c(c2)C(C)(C)CCS3)nc1
2. CC(C)c1ccc2oc3nc(N)c(C(=O)O)cc3c(=O)c2c1
3. C[C@H]1[C@@H](CC(C[C@H]2O[C@@H]3O[C@]4(C)CC[C@H]5[C@H](C)CC[C@@H]([C@H]2C)[C@@]35OO4)C[S+](=O)([O-])c2ccc(COC(=O)N(C)C)cc2)O[C@@H]2O[C@]3(C)CC[C@H]4[C@H](C)CC[C@@H]1[C@@]24OO3

// result
1: 105; 2: 106; 3: 96.1
